Target: NR1/NR2B (Homo sapiens (Human), UniProt Q05586+Q13224)
Sequence (Q13224 27-1484, other chains not shown): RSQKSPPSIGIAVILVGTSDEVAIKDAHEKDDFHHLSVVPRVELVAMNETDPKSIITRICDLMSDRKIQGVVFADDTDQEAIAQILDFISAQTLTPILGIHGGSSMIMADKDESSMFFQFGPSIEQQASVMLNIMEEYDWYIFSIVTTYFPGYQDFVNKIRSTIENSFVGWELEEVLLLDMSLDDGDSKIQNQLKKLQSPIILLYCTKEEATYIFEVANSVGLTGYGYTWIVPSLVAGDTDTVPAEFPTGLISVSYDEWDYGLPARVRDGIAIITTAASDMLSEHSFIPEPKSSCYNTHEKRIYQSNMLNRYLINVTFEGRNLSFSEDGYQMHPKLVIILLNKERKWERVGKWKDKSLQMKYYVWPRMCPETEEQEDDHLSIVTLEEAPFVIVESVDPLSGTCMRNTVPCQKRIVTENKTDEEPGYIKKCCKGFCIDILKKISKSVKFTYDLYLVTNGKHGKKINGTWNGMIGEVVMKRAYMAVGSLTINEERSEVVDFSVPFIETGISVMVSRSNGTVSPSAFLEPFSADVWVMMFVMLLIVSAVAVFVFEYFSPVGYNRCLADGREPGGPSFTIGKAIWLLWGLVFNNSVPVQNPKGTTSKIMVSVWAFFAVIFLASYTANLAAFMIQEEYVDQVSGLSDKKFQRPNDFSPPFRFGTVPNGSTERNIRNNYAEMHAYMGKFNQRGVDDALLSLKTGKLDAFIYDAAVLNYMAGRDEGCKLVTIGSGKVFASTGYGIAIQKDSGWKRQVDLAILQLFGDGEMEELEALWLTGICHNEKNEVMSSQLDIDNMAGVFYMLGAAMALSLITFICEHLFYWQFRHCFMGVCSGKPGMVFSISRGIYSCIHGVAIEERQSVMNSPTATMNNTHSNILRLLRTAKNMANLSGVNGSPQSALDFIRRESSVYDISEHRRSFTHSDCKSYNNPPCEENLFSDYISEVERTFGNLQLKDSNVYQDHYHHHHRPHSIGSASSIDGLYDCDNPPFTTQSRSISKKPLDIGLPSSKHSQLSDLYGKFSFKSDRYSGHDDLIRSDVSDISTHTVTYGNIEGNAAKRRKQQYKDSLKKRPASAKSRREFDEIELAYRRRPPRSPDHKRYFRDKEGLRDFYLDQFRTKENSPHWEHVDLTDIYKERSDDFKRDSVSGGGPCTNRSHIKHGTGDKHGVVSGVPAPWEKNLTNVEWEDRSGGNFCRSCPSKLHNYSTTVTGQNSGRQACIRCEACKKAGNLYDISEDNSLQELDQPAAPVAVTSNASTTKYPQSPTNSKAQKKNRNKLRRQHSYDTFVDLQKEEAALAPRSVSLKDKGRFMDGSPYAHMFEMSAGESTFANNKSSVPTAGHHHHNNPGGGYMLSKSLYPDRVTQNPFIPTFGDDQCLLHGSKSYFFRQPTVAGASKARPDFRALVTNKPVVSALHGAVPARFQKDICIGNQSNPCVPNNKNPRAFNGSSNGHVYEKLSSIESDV
Test: Cell assay: FDSS Ca2+ influx inhibition in HEK293 cells expressing NR1/NR2B;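 further: Fluo-8 Ca2+ signal read on Hamamatsu FDSS 6000 after glutamate, glycine and Ca2+ challenge following 10 min compound preincubation, end/baseline fluorescence ratio compared with MK801 control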
Conditions: Binned Activity, HEK293 cells expressing NR1/NR2B, Ca2+ influx; binned NR2B NAM IC50
pIC50: −log10 of the molar value.
I'd be grateful if you could share measured pIC50 for these entries.

Input line: Could you tell me which pIC50 is on file for Oc1ccc(C(O)CN2C[C@@H]3C[C@@](O)(c4cccnc4F)C[C@@H]3C2)nc1 (mixture of isomers) [Example 251] ?
Output line: < 5.00

Input line: Could you tell me which pIC50 is on file for COC(=O)c1ccc(NC(=O)N2C[C@H]3C[C@@H](c4ccccc4)C[C@H]3C2)cc1 [Example 103] ?
Output line: < 5.00

Input line: Could you tell me which pIC50 is on file for COc1ccccc1NC(=O)N1C[C@@H]2C[C@@](O)(Cc3ccccc3)C[C@@H]2C1 [Example 128] ?
Output line: < 5.00

Input line: Could you tell me which pIC50 is on file for COc1cccc(-c2ccc(C(=O)CN3C[C@@H]4C[C@@](O)(Cc5ccccc5)C[C@@H]4C3)cc2)c1 [Example 265] ?
Output line: < 5.00

Input line: Could you tell me which pIC50 is on file for Oc1ccc(C(O)CN2C[C@H]3CC(Cc4ccccc4)C[C@H]3C2)cc1 (mixture of isomers) [Example 300] ?
Output line: > 7.00

Input line: Could you tell me which pIC50 is on file for Oc1ccc([C@H](O)CN2C[C@@H]3C[C@](F)(Cc4ccccc4)C[C@@H]3C2)cc1 [Example 315] ?
Output line: 6.00 to 7.00

Input line: Could you tell me which pIC50 is on file for O=C(CN1C[C@@H]2C[C@](O)(Cc3ccccc3)C[C@@H]2C1)c1ccc(O)cc1 [Example 290] ?
Output line: > 7.00

Input line: Could you tell me which pIC50 is on file for Cc1ccccc1-c1cccc(C(=O)CN2C[C@@H]3C[C@@](O)(Cc4ccccc4)C[C@@H]3C2)c1 [Example 278] ?
Output line: < 5.00

Input line: Could you tell me which pIC50 is on file for O=C(CN1C[C@@H]2C[C@@](O)(Cc3ccccc3)C[C@@H]2C1)c1ccc(O)cc1 [Example 130] ?
Output line: > 7.00

Input line: Could you tell me which pIC50 is on file for O=C(CN1C[C@@H]2C[C@@](O)(Cc3ccccc3)C[C@@H]2C1)c1cnc(OCc2ccccc2)cn1 [Example 162] ?
Output line: < 5.00

Input line: Could you tell me which pIC50 is on file for N#Cc1cccc(NC(=O)N2C[C@@H]3C[C@@](O)(Cc4ccccc4)C[C@@H]3C2)c1 [Example 123] ?
Output line: < 5.00

Input line: Could you tell me which pIC50 is on file for O=C(CN1C[C@@H]2CN(Cc3ccccc3)C[C@@H]2C1)c1ccc(O)cn1 [Example 328] ?
Output line: < 5.00

Input line: Could you tell me which pIC50 is on file for OC(CN1C[C@H]2C[C@@H](c3ccccc3)C[C@H]2C1)c1cccc(C(F)(F)F)c1 (mixture of isomers) [Example 116] ?
Output line: < 5.00
